Tested on: 786-0
assay_summary: NCI tumour cell line growth inhibition, 48 h
Activity calls are given as the source filed them. No stated cut-off is given here; in the data, active = GI50 up to about 1.1 µM and inactive = higher.
I'd be grateful if you could share measured GI50 for these entries.

Previously resolved entries follow.
CSc1c(C#N)c(N)nc2c(/N=N\c3ccc(Cl)cc3)c(N)nn12
2.86 µM (inactive)
C=CCn1c(=S)sc2c(O)ncnc21
> 100 µM (inactive)
CC12CC(c3ccccc3O1)C(C(=O)Nc1nccs1)C(=O)N2 (stereo not drawn)
> 100 µM (inactive)
CC1C2CC(CC2N)C1(C)C (stereo not drawn)
> 100 µM (inactive)
COC(=O)C(Cc1nc2ccccc2nc1C)/C(=N\NC(N)=O)C(=O)Nc1cccc([N+](=O)[O-])c1 (stereo not drawn)
> 100 µM (inactive)
CC1C=CC(=O)C(n2cc(F)c(=O)[nH]c2=O)O1 (stereo not drawn)
16 µM (inactive)

Record GI50 per entry; entries follow.
1. COc1ccc2c(c1)C(=O)C1(C2)[C@H](c2ccccc2)C2C(=O)c3cc(OC)ccc3C2[C@H]1c1ccccc1 (stereo partly drawn)
2. COc1cc(/C=C/C(=O)Oc2ccc(NC(C)=O)cc2)ccc1C(=O)OCc1ccccc1

Reply:
1: > 100 µM (inactive); 2: 39.6 µM (inactive)

====

Tested on: MDA-MB-435
assay_summary: NCI tumour cell line growth inhibition, 48 h
Active and inactive are the calls of the source. Cut-off read from the data, not from the text of the source: active = GI50 up to about 1.1 µM and inactive = higher. Where a SMILES comes first, the peptide text is derived from it. [ ]: non-standard residue; d: D form. The star is where a group is joined. ξ: configuration not given here. ξF = NC(Cc1ccccc1)C(=O)O; Cbz = O=C(OCc1ccccc1)*; Aib = CC(C)(N)C(=O)O
Your reply should match one of these outcome classes. active, inactive

Previously resolved entries follow.
COc1ccc2nc3cc(Cl)ccc3c(NCCCNCc3cc(OC)c(OC)c(OC)c3)c2c1
inactive
O=S(=O)(OI(O)CC(F)(F)F)C(F)(F)F
inactive
c1ccc(C2C(=P(c3ccccc3)(c3ccccc3)c3ccccc3)P=PC2[P+](c2ccccc2)(c2ccccc2)c2ccccc2)cc1.c1ccc([B-](c2ccccc2)(c2ccccc2)c2ccccc2)cc1 (stereo unspecified)
active

Task item: Assay outcome for COC(=O)C(C)(C)NC(=O)C(Cc1ccccc1)NC(=O)C(C)(C)NC(=O)OCc1ccccc1 (stereo unspecified) (Cbz-[Aib]-[ξF]-[Aib]-OMe) : what was it?
Reply: inactive

Task item: Assay outcome for O=c1c2cc(I)ccc2nc(-c2cccs2)n1Nc1ccccc1 : what was it?
Reply: active

Task item: Assay outcome for CCCC1CC(=O)NC(=O)C1C(=O)OC(C)(C)C (stereo unspecified) : what was it?
Reply: inactive

Task item: Assay outcome for COc1ccc(-c2coc3cc(O)cc(O)c3c2=O)cc1 : what was it?
Reply: inactive

Task item: Assay outcome for CCOC(=O)C1(Cc2ccccc2)Cc2cc3c(cc2C1=O)CCC3 (stereo unspecified) : what was it?
Reply: inactive

Task item: Assay outcome for CCCCC/C=C\C=C1\C(=O)C=C[C@@H]1C/C=C\CCCC(=O)O : what was it?
Reply: inactive

Task item: Assay outcome for Cc1ccccc1N(C)S(=O)(=O)c1ccccc1[N+](=O)[O-] : what was it?
Reply: inactive

====

I'd be grateful if you could share measured GI50 for these entries.
Tested on: OVCAR-4
assay_summary: NCI tumour cell line growth inhibition, 48 h
Calls of active or inactive are those of the source. No stated cut-off is given here; in the data, active = GI50 up to about 1.1 µM and inactive = higher.

Previously resolved entries follow.
C#CCn1c(=O)c(I)cn(/C(=C/C(=O)OCC)C(=O)OCC)c1=O
8.22 µM (inactive)
Cn1c(=O)n2n(c1=O)Cc1cccc3cccc(c13)C2
> 100 µM (inactive)
COCOCC[C@@H]1CC=CC(NC(=O)OCc2ccccc2)C1/C=C/C(=O)CCC1OCCO1 (stereo not given in full)
29 µM (inactive)
O=C1CCC(=O)N1CNc1cccc(NCN2C(=O)CCC2=O)c1
> 100 µM (inactive)
Cc1ccc(N/C(SCc2ccccc2)=C(\C(Cl)=C(Cl)Cl)[N+](=O)[O-])c(C)c1
10.8 µM (inactive)

Record GI50 per entry; entries follow.
1. COc1ccccc1NCC(=O)Nn1c(C)nc2ccc(S(=O)(=O)Nc3ccccc3OC)cc2c1=O
2. CCN(CC)CCCNC(=O)c1cc2cc(NC(=O)c3cc4cc([N+](=O)[O-])ccc4[nH]3)ccc2[nH]1
3. COC(=O)Cc1cc(O)c(C/C=C(\C)CC/C=C(\C)C(O)C(=O)C=C(C)C)cc1O (stereo not given)
4. C/C=C1\CN(C(=O)OC(C)(C)C)C1C(=O)OC(C)(C)C (stereo not given)
5. COC(=O)/C(C#N)=C1\CCC(O)N1C (stereo not given)

Reply:
> 100 µM (inactive)
> 100 µM (inactive)
40.4 µM (inactive)
53.6 µM (inactive)
> 100 µM (inactive)
